Some molecules, each annotated with its measured log10 of Ki.
Biological target: Oxytocin receptor (Homo sapiens)
Sequence (P30559 whole entry): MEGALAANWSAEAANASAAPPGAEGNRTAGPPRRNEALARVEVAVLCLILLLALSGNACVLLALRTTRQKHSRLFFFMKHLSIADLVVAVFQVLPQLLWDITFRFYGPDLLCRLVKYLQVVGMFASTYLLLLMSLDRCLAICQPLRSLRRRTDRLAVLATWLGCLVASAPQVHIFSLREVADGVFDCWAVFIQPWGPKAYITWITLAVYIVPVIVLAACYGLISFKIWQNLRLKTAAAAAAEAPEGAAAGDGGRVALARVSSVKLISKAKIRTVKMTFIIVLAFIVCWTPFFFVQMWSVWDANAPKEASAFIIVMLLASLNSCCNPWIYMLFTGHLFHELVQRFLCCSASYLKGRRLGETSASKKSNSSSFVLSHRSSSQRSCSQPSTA
ENDPOINT_LABEL: log10 of Ki (log10 of the value in nM)

MOLECULE: COc1cc(OC2CCN(C(C)=O)CC2)ccc1C(=O)N1CCC(N2C(=O)OCc3ccccc32)CC1
log10 of Ki: 0.97

MOLECULE: CCC(Oc1ccc(C(=O)N2CCC(N3C(=O)OCc4ccccc43)CC2)c(OC)c1)c1ccccc1 (stereo unspecified)
log10 of Ki: 1.76

MOLECULE: CCOc1ccc(C(=O)N2CCC(N3C(=O)OCc4ccccc43)CC2)c(OC)c1
log10 of Ki: 1.18

MOLECULE: COc1cc(OC(C)C)ccc1C(=O)N1CCC(N2C(=O)OCc3ccccc32)CC1
log10 of Ki: 1.23

MOLECULE: COc1ccc(C(=O)N2CCC(N3C(=O)OCc4ccccc43)CC2)c(OC)c1
log10 of Ki: 1.94

MOLECULE: COc1cc(O[C@H](C)c2cc[n+]([O-])cc2)c(F)cc1C(=O)N1CCC(N2C(=O)OCc3ccccc32)CC1
log10 of Ki: 0.87

----------
Biological target: Oxytocin receptor (Rattus norvegicus)
Sequence (P70536 whole entry): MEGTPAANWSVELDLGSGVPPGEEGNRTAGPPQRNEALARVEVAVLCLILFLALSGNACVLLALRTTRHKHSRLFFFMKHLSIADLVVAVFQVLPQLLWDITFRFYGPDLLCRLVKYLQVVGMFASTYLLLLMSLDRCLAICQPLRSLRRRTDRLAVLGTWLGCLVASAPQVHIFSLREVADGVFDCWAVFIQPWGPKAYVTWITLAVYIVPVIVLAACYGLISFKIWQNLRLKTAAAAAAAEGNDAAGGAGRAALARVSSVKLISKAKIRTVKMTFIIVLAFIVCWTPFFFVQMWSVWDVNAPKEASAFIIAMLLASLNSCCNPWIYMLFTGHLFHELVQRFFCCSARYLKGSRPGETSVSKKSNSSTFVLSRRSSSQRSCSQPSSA
pKi: −log10 of the molar value.

COMPOUND_STRUCTURE: COc1cc(O[C@H](C)c2cc[n+]([O-])cc2)c(F)cc1C(=O)N1CCC(N2C(=O)OCc3ccccc32)CC1
pKi: 8.00
--
COMPOUND_STRUCTURE: COc1ccc(C(=O)N2CCC(N3C(=O)OCc4ccccc43)CC2)c(OC)c1
pKi: 6.92
